conditions: [M+H]+; instrument: DT; stepped-field
Each entry below carries its reported collision cross section (N2).
measurement_label: collision cross section (N2) (Å²)

| compound | test_result |
| --- | --- |
| C1=Cc2cccc3cccc1c23 | 125.71 |
| Nc1c(O)cccc1C(=O)CC(N)C(=O)O (racemic) [3-Hydroxy-DL-kynurenine] | 157.67 |
| Cc1ccc2ccccc2c1 | 124.57 |
| O=C[C@H](O)COP(=O)(O)O [D-Glyceraldehyde 3-Phosphate] | 135.86 |
| NCCc1c[nH]c2ccc(O)cc12 | 151.9 |
| O=C(O)CCC(=O)O | 122.66 |
| NC(=O)c1ccc[n+]([C@@H]2O[C@H](COP(=O)(O)OP(=O)(O)OC[C@H]3O[C@@H](n4cnc5c(=O)nc[nH]c54)[C@H](O)[C@@H]3O)[C@@H](O)[C@H]2O)c1 [Nicotinamide Hypoxanthine Dinucleotide] | 222.79 |
| c1ccc2c(c1)cc1ccc3cccc4ccc2c1c34 | 152.05 |
| O=C1C=Cc2cccc3cccc1c23 | 134.59 |

----------
details: [M+H]+; instrument: DT; single field, calibrated with ESI Low Concentration Tuning Mix (Agilent)

| chem_smiles | collision cross section (N2) |
| --- | --- |
| C[n+]1cccc(C(=O)[O-])c1 | 124 Å² |
| N[C@@H](Cc1cc(I)c(Oc2ccc(O)cc2)c(I)c1)C(=O)O | 198.5 Å² |
| N[C@@H](Cc1ccc(O)cc1)C(=O)O | 145.8 Å² |
| O=CCc1c[nH]c2ccccc12 | 132.3 Å² |

----------
details: [M+Na]+; instrument: DT; stepped-field
measurement_label: collision cross section (N2) (Å²)

| compound | measurement_label | test_result |
| --- | --- | --- |
| O=C(COP(=O)(O)O)[C@@H](O)[C@H](O)[C@H](O)CO [Fructose-1-phosphate] | collision cross section (N2) | 159.68 |
| CCCCCCCCCCC(=O)OC[C@H](COP(=O)([O-])OCC[N+](C)(C)C)OC(=O)CCCCCCCCCC | collision cross section (N2) | 260.59 |
| C[C@@H]1O[C@@H](O[C@H]2[C@H](Oc3cc(O)c4c(c3)O[C@H](c3ccc(O)cc3)CC4=O)O[C@H](CO)[C@@H](O)[C@@H]2O)[C@H](O)[C@H](O)[C@H]1O | collision cross section (N2) | 234.02 |

----------
conditions: [M-H]-; instrument: DT; single field, calibrated with Agilent tune mix (Agilent)
Each entry below carries its reported collision cross section (N2).
measurement_label: collision cross section (N2)

| compound | test_result |
| --- | --- |
| O=c1[nH]c(=O)c2ncn([C@@H]3O[C@H](COP(=O)(O)O)[C@@H](O)[C@H]3O)c2[nH]1 | 164.74 Å² |
| O=C(O)CCCC(=O)O | 120.08 Å² |
| CCCCCCCC(=O)O | 139.46 Å² |
| O=C(O)c1cccc([O-])c1 [3-Hydroxybenzoate] | 125.4 Å² |
| Cn1cncc1C[C@H](NC(=O)CCN)C(=O)O | 152.32 Å² |
| CC(=O)N[C@H]1C(OP(=O)(O)O)O[C@H](CO)[C@@H](O)[C@@H]1O (stereo partly specified) [N-Acetylglucosamine 1-phosphate] | 156.42 Å² |

----------
settings: [M+H]+; instrument: TW; calibrated with polyalanine and drug standards
measurement_label: collision cross section (N2) (Å²)

| molecule | measurement_label | test_result |
| --- | --- | --- |
| COc1ccc(-c2coc3cc(O)cc(O)c3c2=O)cc1 | collision cross section (N2) | 160.9 |
| COc1cc(-c2coc3cc(O[C@@H]4O[C@H](CO)[C@@H](O)[C@H](O)[C@H]4O)c(OC)c(O)c3c2=O)cc(O)c1OC | collision cross section (N2) | 227.2 |
| C[C@H]1C[C@H]2[C@@H]3CCC4=CC(=O)C=C[C@]4(C)[C@@]3(F)[C@@H](O)C[C@]2(C)[C@@]1(O)C(=O)CO | collision cross section (N2) | 186.7 |
| C/C(=C\C(=O)OCCCCCCCCC(=O)O)C[C@@H]1OC[C@H](C[C@@H]2O[C@H]2[C@@H](C)[C@H](C)O)[C@@H](O)[C@H]1O | collision cross section (N2) | 214.8 |
| COC(=O)c1c(OC)cc2c(c1C)Oc1c(Cl)c(O)c(Cl)c(C)c1C(=O)O2 | collision cross section (N2) | 186.4 |
| c1coc(CNc2ncnc3nc[nH]c23)c1 | collision cross section (N2) | 144.1 |
| O=c1c(O)c(-c2ccc(O)c(O)c2)oc2cc(O)ccc12 | collision cross section (N2) | 160.7 |
| Cc1ccc(S(=O)(=O)NC(=O)NN2CC3CCCC3C2)cc1 (centres undefined) [GLICLAZIDE] | collision cross section (N2) | 178 |
| COc1c(O)cc2oc3cc(O)c(CC=C(C)C)c(O)c3c(=O)c2c1CC=C(C)C | collision cross section (N2) | 198.8 |
| CC(C)c1ccc2c(c1O)CC[C@H]1C3=C(CC[C@]21C)C(=O)OC3 [TRIPTOPHENOLIDE] | collision cross section (N2) | 179.4 |
| COC(=O)C1=C(C)NC(C)=C(C(=O)OCC(C)C)C1c1ccccc1[N+](=O)[O-] (centres undefined) | collision cross section (N2) | 187.2 |
| COc1ccc(-c2cc(=O)c3c(O)cc(O)cc3o2)cc1 | collision cross section (N2) | 160.3 |
| C=CCOC(Cn1ccnc1)c1ccc(Cl)cc1Cl (centres undefined) | collision cross section (N2) | 165.2 |
| Nc1nc(F)nc2c1ncn2[C@@H]1O[C@H](COP(=O)(O)O)[C@@H](O)[C@@H]1O [FLUDARABINE PHOSPHATE] | collision cross section (N2) | 168.8 |

----------
Each entry below carries its reported collision cross section (N2).
conditions: [M+H]+; instrument: TW; calibrated with polyalanine and drug standards
Where a name gives a salt, the structure may show the parent alone.
measurement_label: collision cross section (N2) (Å²)

| compound | measurement_label | test_result |
| --- | --- | --- |
| Cc1c(OCC(F)(F)F)ccnc1CS(=O)c1nc2ccccc2[nH]1 (stereo unspecified) | collision cross section (N2) | 185.8 |
| CN(C)CCCN1c2ccccc2Sc2ccc(Cl)cc21 | collision cross section (N2) | 169.8 |
| C[C@]12CC[C@@H](O)C[C@H]1CCc1ccccc12 [3alpha-HYDROXY-4,4-BISNOR-8,11,13-PODOCARPATRIENE] | collision cross section (N2) | 140.4 |
| N[C@@H](C(=O)O)[C@@H](O)[C@H](O)[C@H](O)CO | collision cross section (N2) | 138.8 |
| O=C(O)c1ccccc1Nc1ccccc1 | collision cross section (N2) | 144.5 |
| CC(C)(CO)[C@@H](O)C(=O)NCCCO | collision cross section (N2) | 144.1 |
| O=C([O-])Cc1cnc[nH]1 [IMIDAZOL-4-YLACETIC ACID SODIUM SALT] | collision cross section (N2) | 120.7 |
| CC(=O)O[C@@H]1CC2C(C)(C)[C@H](O)CC[C@]2(C)C2CC[C@@]3(C)[C@H](c4ccoc4)OC(=O)C4OC43[C@@]21C (stereo partly drawn) [alpha-DIHYDROGEDUNOL] | collision cross section (N2) | 205.9 |
| Nc1nc(=S)c2[nH]cnc2[nH]1 | collision cross section (N2) | 129.7 |
| COc1ccc2c(c1)O[C@H]1c3ccc(OC)cc3OC[C@@H]21 | collision cross section (N2) | 162.7 |
| COc1cc(O)c(C(=O)/C=C/c2ccc(O)c(OC)c2)c(OC)c1 [2',4-DIHYDROXY-3,4',6'-TRIMETHOXYCHALCONE] | collision cross section (N2) | 177.5 |
| COc1ccc(NS(=O)(=O)c2ccc(N)cc2)nn1 | collision cross section (N2) | 159.4 |
| Cc1cc2cc3c(C)cc(=O)oc3c(C)c2o1 | collision cross section (N2) | 147.4 |
| Oc1cc(O)c2c(c1)O[C@H](c1cc(O)c(O)c(O)c1)[C@H](O)C2 [EPIGALLOCATECHIN] | collision cross section (N2) | 165.5 |
| COCCc1ccc(OCC(O)CNC(C)C)cc1 (stereo unspecified) | collision cross section (N2) | 170.7 |
| O=c1oc2ccccc2c(O)c1Cc1c(O)c2ccccc2oc1=O | collision cross section (N2) | 182 |

----------
Each entry below carries its reported collision cross section (N2).
conditions: [M+K]+; instrument: DT; stepped-field

| chem_smiles | collision cross section (N2), Å² |
| --- | --- |
| CCCCCCCCCCCCCCCCCCCC(=O)O[C@H](COC(=O)CCCCCCCCCCCCCCCC)COP(=O)(O)OCCN | 297.8 |
| CCCCCCCC=CCC=CCC=CCC=CCC=CCC(=O)OC[C@H](COP(=O)(O)OC[C@H](N)C(=O)O)OC(=O)CC=CCC=CCC=CCC=CCC=CCCCCCCC | 306.3 |
| CCCC/C=C\C/C=C\CCCCCCCC(=O)O[C@H](COC(=O)CCCCCCC/C=C\CCCCCCCC)COP(=O)([O-])OCC[N+](C)(C)C | 296.1 |
| CC/C=C\C/C=C\C/C=C\C/C=C\C/C=C\CCCC(=O)O[C@H](COC(=O)CCCCCCC/C=C\CCCCCCCCC)COP(=O)([O-])OCC[N+](C)(C)C | 303.4 |
| CCCCCC/C=C\CCCCCCCCCC(=O)OC[C@H](COP(=O)([O-])OCC[N+](C)(C)C)OC(=O)CCCCCCC/C=C\CCCCCC | 291.3 |
